tested on: C57Bl/6J mice; experiment: Rectal; assay type: in vivo; details: females, single IP injection
reported_endpoint: maximal decrease in temperature, females

C[C@H](N)C(=O)c1ccccc1; ≈ 7 °C
CNC(C)C(=O)c1ccccc1 (stereo not shown); ≈ 7 °C

Sourced from paper PMC7195606
